Sourced from paper PMC2756588

target: Sho1, P40073; experiment: SPOT array; details: median of control spots 1148
Sequence (P40073 287-367): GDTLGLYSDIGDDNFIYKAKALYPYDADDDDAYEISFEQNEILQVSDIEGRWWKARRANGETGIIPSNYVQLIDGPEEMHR
Readout Kind: SPOT intensity
API doc: respond with a numeric literal and nothing else, no unit.

[
  {
    "Binder": "TTAPALPSLPPPPLL",
    "SPOT intensity": 0
  },
  {
    "Binder": "TKPTPPPKPSHLKPK",
    "SPOT intensity": 199
  },
  {
    "Binder": "IRMPSNPALPKKLLN",
    "SPOT intensity": 79
  },
  {
    "Binder": "KRRAPPPVPKKPSSR",
    "SPOT intensity": 370
  },
  {
    "Binder": "DGNEEKPLLPTRPNK",
    "SPOT intensity": 0
  },
  {
    "Binder": "PPIPNAPLSPAPAVP",
    "SPOT intensity": 0
  }
]

Field: next binder
Summary for this binder, KTKQQKPAIPQKKSF : SPOT intensity is 38
